Target: serotonin transporter (Rattus norvegicus, UniProt P31652)
Construct: displace ^3H-paroxetine from male rat cortical membranes; from tissue; host or cells: male rat cortical membranes
Sequence (P31652 whole entry): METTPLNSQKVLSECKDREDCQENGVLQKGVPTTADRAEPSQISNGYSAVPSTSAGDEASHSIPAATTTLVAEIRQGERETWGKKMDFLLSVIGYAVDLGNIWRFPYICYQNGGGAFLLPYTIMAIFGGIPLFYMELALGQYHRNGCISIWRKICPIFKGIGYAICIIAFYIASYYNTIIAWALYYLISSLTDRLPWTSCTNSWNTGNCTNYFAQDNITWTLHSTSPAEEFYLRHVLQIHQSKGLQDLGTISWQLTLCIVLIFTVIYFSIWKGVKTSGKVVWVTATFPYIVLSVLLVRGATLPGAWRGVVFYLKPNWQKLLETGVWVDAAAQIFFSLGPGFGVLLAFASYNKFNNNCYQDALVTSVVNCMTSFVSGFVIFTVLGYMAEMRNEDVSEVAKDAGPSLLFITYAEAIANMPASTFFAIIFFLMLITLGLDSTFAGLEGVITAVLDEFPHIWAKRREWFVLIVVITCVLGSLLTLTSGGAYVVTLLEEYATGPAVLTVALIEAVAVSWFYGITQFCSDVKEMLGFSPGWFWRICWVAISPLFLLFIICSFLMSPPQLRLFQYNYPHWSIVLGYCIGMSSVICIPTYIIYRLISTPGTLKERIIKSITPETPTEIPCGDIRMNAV
Test: 5-HT transporter affinity: displacement of 3H-paroxetine from male rat cortical membranes
Format: binding
Details: displacement of 3H-paroxetine; male rat cortical membranes; read-out: 5-HT Transporter Affinity Ki
Please use condition met for Ki under 20 nM and condition not met for everything else, ties included.

Solved entries (count: 2):
CC(CCc1c[nH]c2ccc(F)cc12)N(CC1CC1)C1COc2c(F)ccc(C(N)=O)c2C1 (single isomer, unassigned; (+)) [Compound 15b]
condition not met
CCN(CCCc1c[nH]c2ccc(OC)cc12)C1COc2c(F)ccc(C(N)=O)c2C1 (stereo not shown)
condition not met

Next:
Find out if reported Ki for NC(=O)c1ccc(F)c2c1CC(N(CCCc1c[nH]c3ccc(F)cc13)C1CCC1)CO2 (single isomer, unassigned; (+)) [Compound 4a] is less than 20 nM
condition met

###

Counter-ions that a name gives are not always drawn.
Each entry below carries its reported melting point.

Illustrative cases are given below, each with its answer.
CNC(=O)c1ccc(F)c2c1CC(N(CCc1c[nH]c3ccc(F)cc13)CC1CC1)CO2 (stereo not shown) (as salt: hydrochloride) [Compound 86]
138 °C (dec.)
COc1cccc2c1CC(N(CCCc1c[nH]c3ccc(F)cc13)C1CCCC1)CO2 (stereo not shown) (as salt: hydrochloride) [Compound 39]
112 °C (dec.)
CNC(=O)c1ccc(F)c2c1CC(N(CCCc1c[nH]c3ccc(F)cc13)CC1CC1)CO2 (stereo not shown) (as salt: hydrochloride) [Compound 91]
120 °C (dec.)
CCNC(=O)c1ccc(F)c2c1CC(N(CCCc1c[nH]c3ccc(F)cc13)C1CCC1)CO2 (stereo not shown) (as salt: hydrochloride) [Compound 60]
130 °C (dec.)
NC(=O)c1ccc(F)c2c1CC(N(CCCc1c[nH]c3ccc(Cl)cc13)CC1CC1)CO2 (stereo not shown) (as salt: hydrochloride) [Compound 118]
150 to 158 °C (dec.)

// moving on: another record for melting point
Please report the recorded melting point for NC(=O)c1ccc(F)c2c1CC(N(CCCc1c[nH]c3c(Cl)cccc13)CC1CC1)CO2 (stereo not shown) (as salt: hydrochloride) [Compound 112] .
147 to 155 °C (dec.)

###

Where a name gives a salt, the structure may show the parent alone.
Each entry below carries its reported melting point.

Illustrative cases are given below, each with its answer.
COc1cccc2c1CC(N[C@H]1CC[C@H](c3c[nH]c4ccc(F)cc43)CC1)CO2 (relative stereo) (as salt: hydrochloride) [Compound 181b]
265 °C (dec.)
CCN(CCCCc1coc2ccccc12)C1COc2cccc(OC)c2C1 (stereo not shown) (as salt: hydrochloride)
152 to 154 °C
NC(=O)c1ccc(F)c2c1CC(N(CCCc1c[nH]c3ccc(F)cc13)Cc1ccccc1)CO2 (stereo not shown) (as salt: hydrochloride)
142 to 150 °C (dec.)
CCCN(C1COc2cccc(OC)c2C1)[C@H]1CC[C@H](c2c[nH]c3ccc(F)cc32)CC1 (relative stereo) (as salt: hydrochloride)
159 °C (dec.)
NC(=O)c1ccc(F)c2c1CC(NCCCc1c[nH]c3ccc(F)cc13)CO2 (stereo not shown) (as salt: hydrochloride) [Compound 1]
122 °C (dec.)
CNC(=O)c1ccc(F)c2c1CC(NCCc1c[nH]c3ccc(F)cc13)CO2 (stereo not shown) (as salt: hydrochloride)
148 °C (dec.)
CCCN(CCCCc1c[nH]c2ccc(F)cc12)C1COc2c(F)ccc(C(=O)NC)c2C1 (stereo not shown) (as salt: hydrochloride)
110 °C (dec.)
O=C(NCC1CC1)c1ccc(F)c2c1CC(N(CCCc1c[nH]c3ccc(F)cc13)C1CCC1)CO2 (stereo not shown) (as salt: hydrochloride)
114 °C (dec.)

Please report the recorded melting point for CNC(=O)c1ccc(F)c2c1CC(NCCCCc1c[nH]c3ccc(F)cc13)CO2 (stereo not shown) (as salt: hydrochloride) .
130 °C (dec.)

Again, but for CCCCCN(CCCc1c[nH]c2ccc(F)cc12)C1COc2c(F)ccc(C(N)=O)c2C1 (stereo not shown) (as salt: hydrochloride)
128 °C (dec.)

Again, but for NC(=O)c1ccc(F)c2c1OCC(N(CCCc1c[nH]c3c(F)cc(F)cc13)C1CCC1)C2 (stereo not shown) (as salt: hydrochloride)
136 °C (dec.)
